So I've got a bunch of compounds here, and I need their log10 of IC50 values.
# assay target: mTOR (Homo sapiens)
# Sequence (P42345 1360-2549 limits assumed): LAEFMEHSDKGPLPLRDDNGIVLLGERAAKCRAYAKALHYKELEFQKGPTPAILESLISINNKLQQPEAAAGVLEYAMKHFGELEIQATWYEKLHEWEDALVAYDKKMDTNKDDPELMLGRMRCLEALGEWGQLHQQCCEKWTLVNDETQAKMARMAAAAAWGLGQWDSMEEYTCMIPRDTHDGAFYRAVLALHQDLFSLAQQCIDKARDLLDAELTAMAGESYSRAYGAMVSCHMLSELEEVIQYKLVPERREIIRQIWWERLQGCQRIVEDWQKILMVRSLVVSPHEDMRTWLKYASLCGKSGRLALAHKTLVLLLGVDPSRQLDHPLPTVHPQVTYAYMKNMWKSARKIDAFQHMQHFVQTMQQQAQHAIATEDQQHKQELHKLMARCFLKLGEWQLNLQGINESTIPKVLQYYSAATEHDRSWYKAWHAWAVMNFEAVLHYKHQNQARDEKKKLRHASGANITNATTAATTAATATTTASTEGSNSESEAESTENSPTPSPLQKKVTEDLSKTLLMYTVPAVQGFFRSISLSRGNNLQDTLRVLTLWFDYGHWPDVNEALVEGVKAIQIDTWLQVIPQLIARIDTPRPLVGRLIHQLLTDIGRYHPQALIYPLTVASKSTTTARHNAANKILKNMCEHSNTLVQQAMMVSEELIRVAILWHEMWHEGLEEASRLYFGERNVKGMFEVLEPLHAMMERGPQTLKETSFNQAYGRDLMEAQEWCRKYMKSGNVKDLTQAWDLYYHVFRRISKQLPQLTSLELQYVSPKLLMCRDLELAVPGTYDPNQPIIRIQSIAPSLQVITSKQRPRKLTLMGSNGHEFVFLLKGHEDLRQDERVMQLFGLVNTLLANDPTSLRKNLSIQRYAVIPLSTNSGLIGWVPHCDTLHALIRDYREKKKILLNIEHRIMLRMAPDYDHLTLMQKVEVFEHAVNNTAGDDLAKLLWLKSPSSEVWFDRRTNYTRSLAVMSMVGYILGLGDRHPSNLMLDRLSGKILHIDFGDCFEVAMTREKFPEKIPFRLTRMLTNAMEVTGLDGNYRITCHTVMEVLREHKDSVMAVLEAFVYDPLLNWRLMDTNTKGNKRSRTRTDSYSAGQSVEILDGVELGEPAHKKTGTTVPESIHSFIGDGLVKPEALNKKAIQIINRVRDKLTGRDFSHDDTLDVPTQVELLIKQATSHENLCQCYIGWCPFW
Values reflect log10 of reported IC50 (nM).

Look over these answered cases.
{"columns": ["smiles data", "log10 of IC50"],
 "data": [
  ["COc1cc(-c2ccc3ncc4c(c3c2)n(-c2cn(C)nc2Cl)c(=O)n4C)cnc1CO", 0.78],
  ["Cc1nn(C)cc1-n1c(=O)n(C)c2cnc3ccc(-c4cncc(NS(C)(=O)=O)c4)cc3c21", 0.70],
  ["CCN(C)C(=O)Cn1cc(-n2c(=O)n(C)c3cnc4ccc(-c5ccc(-n6cccn6)cc5)cc4c32)c(C)n1", 1.43],
  ["COc1ncc(-c2ccc3ncc4c(c3c2)n(-c2cn(C)nc2C)c(=O)n4C)cc1[N+](=O)[O-]", 2.32],
  ["Cc1nn(C(C)C)cc1-n1c(=O)n(C)c2cnc3ccc(-c4cnc(N(C)C)nc4)cc3c21", 1.48]
]}

Here are 2 compounds. What values of log10 of IC50 were reported for them?
1. CCOCc1ncc(-c2ccc3ncc4c(c3c2)n(-c2cn(C)nc2Cl)c(=O)n4C)cc1OC
2. Cc1nn(C)c(C)c1-n1c(=O)n(C)c2cnc3ccc(-c4cnc(N)c(Cl)c4)cc3c21

1.65
1.98
